SYSTEM_NAME: androgen receptor (AR) splicing variant AR-v7 (Homo sapiens)
Construct: The degradation activity of compounds on AR-v7 in 22RV1 cells; host or cells: 22RV1 cells
Sequence (P10275 1-644 isoform P10275-3): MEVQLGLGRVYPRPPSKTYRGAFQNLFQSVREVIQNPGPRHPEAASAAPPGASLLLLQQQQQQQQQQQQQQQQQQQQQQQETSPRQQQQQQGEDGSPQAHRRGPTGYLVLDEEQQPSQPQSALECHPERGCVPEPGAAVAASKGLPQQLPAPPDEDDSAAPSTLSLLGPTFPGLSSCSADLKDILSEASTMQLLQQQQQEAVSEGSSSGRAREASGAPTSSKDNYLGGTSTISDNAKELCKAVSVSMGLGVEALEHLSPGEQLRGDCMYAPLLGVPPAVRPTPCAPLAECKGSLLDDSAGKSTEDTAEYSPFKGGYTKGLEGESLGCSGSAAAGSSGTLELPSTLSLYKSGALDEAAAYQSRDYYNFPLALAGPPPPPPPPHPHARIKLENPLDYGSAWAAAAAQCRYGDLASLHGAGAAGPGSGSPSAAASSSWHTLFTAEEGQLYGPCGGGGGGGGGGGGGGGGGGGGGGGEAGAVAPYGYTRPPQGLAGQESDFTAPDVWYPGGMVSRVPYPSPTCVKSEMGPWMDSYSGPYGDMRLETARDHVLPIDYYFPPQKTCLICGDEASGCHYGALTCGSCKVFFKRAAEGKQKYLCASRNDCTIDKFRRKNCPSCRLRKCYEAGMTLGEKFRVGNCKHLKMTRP
ASSAY_REMARKS: Degradation activity on androgen receptor splicing variant AR-v7 in 22RV1 cells (ELISA)
Assay type: cell-based
EXPERIMENTAL_PARAMETERS: AR-v7 degradation in 22RV1 cells, 48 h, class symbols
Recorded DC50, one value per entry.

COMPOUND | DC50
CC(C)(c1ccc(OCCCNc2cccc3c2C(=O)N(C2CCC(=O)NC2=O)C3=O)cc1)c1ccc(OCc2ccnc(N3CCOCC3)n2)cc1 (stereo not shown) [Example 59] | 11 to 100 nM
CNc1cnc(Oc2ccc(C(C)(C)c3ccc(O[C@H]4C[C@H](Nc5ccc6c(c5)C(=O)N(C5CCC(=O)NC5=O)C6=O)C4)cc3)cc2)cn1 (stereo partly shown) [Example 551] | 11 to 100 nM
C[C@@H](O)c1cnc(Oc2ccc(C3(c4ccc(OC5CC(Nc6ccc7c(c6)C(=O)N(C6CCC(=O)NC6=O)C7=O)C5)cc4)CCCC3)cc2)cn1 (stereo partly shown) [Example 178] | < 10 nM
CC1(CNc2nccc(COc3ccc(C(C)(C)c4ccc(O[C@H]5C[C@@H](Nc6ccc7c(c6)C(=O)N(C6CCC(=O)NC6=O)C7=O)C5)cc4)cc3)n2)CNC1 (stereo partly shown) [Example 457] | 11 to 100 nM
CC(C)(c1ccc(OCc2ccnc(N3CC4(COC4)C3)n2)cc1)c1ccc(OC2CCCCC2Nc2ccc3c(c2)C(=O)N(C2CCC(=O)NC2=O)C3=O)cc1 (stereo not shown) [Example 569] | 1000 to 5000 nM

# returns recorded DC50 (system: androgen receptor (AR) splicing variant AR-v7 (Homo sapiens)) for CC(=O)c1ncc(Oc2ccc(C(C)(C)c3ccc(O[C@H]4C[C@@H](Nc5ccc6c(c5)C(=O)N(C5CCC(=O)NC5=O)C6=O)C4)cc3)cc2)cn1 (stereo partly shown) [Example 128] 11 to 100 nM

----------
SYSTEM_NAME: androgen receptor (AR) splicing variant AR-v7 (Homo sapiens)
Construct: The degradation activity of compounds on AR-v7 in 22RV1 cells; host or cells: 22RV1 cells
ASSAY_REMARKS: Degradation activity on androgen receptor splicing variant AR-v7 in 22RV1 cells (ELISA)
Type: cell-based
EXPERIMENTAL_PARAMETERS: AR-v7 degradation in 22RV1 cells, 48 h, class symbols
EXPERIMENTAL_READOUT: DC50

Record excerpt, results attached:
COMPOUND | EXPERIMENTAL_READOUT | RESULT
C[C@@H]1CN[C@@H](C)CN1c1nccc(COc2ccc(C(C)(C)c3ccc(O[C@H]4C[C@@H](Nc5ccc6c(c5)C(=O)N(C5CCC(=O)NC5=O)C6=O)C4)cc3)cc2)n1 (stereo partly shown) | DC50 | 11 to 100 nM
Cc1nc(-c2nccc(Oc3ccc(C(C)(C)c4ccc(O[C@H]5C[C@@H](Nc6ccc7c(c6)C(=O)N(C6CCC(=O)NC6=O)C7=O)C5)cc4)cc3)n2)no1 (stereo partly shown) | DC50 | 11 to 100 nM
Cc1noc(-c2ccc(Oc3ccc(C(C)(C)c4ccc(O[C@H]5C[C@H](Nc6ccc7c(c6)C(=O)N(C6CCC(=O)NC6=O)C7=O)C5)cc4)cc3)nn2)n1 (stereo partly shown) | DC50 | < 10 nM

# returns recorded DC50 (system: androgen receptor (AR) splicing variant AR-v7 (Homo sapiens)) for CC(C)(c1ccc(Oc2ccc(-n3ccnn3)nc2)cc1)c1ccc(O[C@H]2C[C@@H](Nc3ccc4c(c3)C(=O)N(C3CCC(=O)NC3=O)C4=O)C2)cc1 (stereo partly shown) 11 to 100 nM

Another compound to check: Cc1nc(-c2ccc(Oc3ccc(C(C)(C)c4ccc(O[C@H]5C[C@H](Nc6ccc7c(c6)C(=O)N(C6CCC(=O)NC6=O)C7=O)C5)cc4)cc3)cc2)no1 (stereo partly shown) 11 to 100 nM

Another compound to check: CC(C)(c1ccc(Oc2ncc(-n3nccn3)cn2)cc1)c1ccc(O[C@H]2C[C@@H](Nc3ccc4c(c3)C(=O)N(C3CCC(=O)NC3=O)C4=O)C2)cc1 (stereo partly shown) 11 to 100 nM

Another compound to check: CC(=O)c1nccc(COc2ccc(C(C)(C)c3ccc(OCCCNc4cccc5c4C(=O)N(C4CCC(=O)NC4=O)C5=O)cc3)cc2)n1 (stereo not shown) 1000 to 5000 nM

Another compound to check: CC(C)(c1ccc(OCc2ccnc(OC3COC3)n2)cc1)c1ccc(O[C@H]2C[C@H](Nc3ccc4c(c3)C(=O)N(C3CCC(=O)NC3=O)C4=O)C2)cc1 (stereo partly shown) < 10 nM

Another compound to check: CC(C)(c1ccc(OCC#Cc2ccc3c(c2)C(=O)N(C2CCC(=O)NC2=O)C3=O)cc1)c1ccc(OCc2ccnc(N3CC4(COC4)C3)n2)cc1 (stereo not shown) 101 to 1000 nM

Another compound to check: CC(=O)c1nccc(COc2ccc(C(C)(C)c3ccc(OCCNc4ccc5c(c4)C(=O)N(C4CCC(=O)NC4=O)C5=O)cc3)cc2)n1 (stereo not shown) < 10 nM

Another compound to check: CC1(N)CN(c2nccc(COc3ccc(C(C)(C)c4ccc(O[C@H]5C[C@@H](Nc6ccc7c(c6)C(=O)N(C6CCC(=O)NC6=O)C7=O)C5)cc4)cc3)n2)C1 (stereo partly shown) < 10 nM

Another compound to check: Cc1nc(COc2ccc(C(C)(C)c3ccc(OCCCNc4ccc5c(c4)C(=O)N(C4CCC(=O)NC4=O)C5=O)cc3)cc2)cs1 (stereo not shown) 11 to 100 nM

Another compound to check: CC(C)(c1ccc(Oc2cncc(-n3ccnn3)n2)cc1)c1ccc(O[C@H]2C[C@H](Nc3ccc4c(c3)C(=O)N(C3CCC(=O)NC3=O)C4=O)C2)cc1 (stereo partly shown) < 10 nM
